- Tested on: MDA-MB-231 breast cancer cells
- Assay: MTT proliferation assay, MDA-MB-231
- Format: cell-based, human
- Measurement Parameters: MDA-MB-231 cells, 24 hours; read-out: SMR at IC50 concentration
Recorded IC50 for the following sequences

- Sequence Data: "NXNVGFPVAAVGFPV (SEQ ID NO: 36) [PEG-SMRwt]"
  Measured On: "MDA-MB-231 breast cancer cells"
  IC50: "420 nM"

The record that follows has no IC50 shown yet.
// query IC50 value for entry NXNVGFPVAAVGFPVHPLSKHPYWSQP (SEQ ID NO: 37) [PEG-SMRwt-Clu]
280 nM
